Test system: mock-infected MT-4 cells
Test: Cytotoxicity: viability of mock-infected cells by the MTT method
Assay type: cell-based, human
The entries below are paired with their reported CC50.
Unit µM implied. Number only.

// solved cases for CC50 follow
{"columns": ["compound", "measure-unit", "CC50"],
 "data": [
  ["CNc1nc(Cc2c(F)cccc2F)c(C)c(=O)[nH]1 [MC 1168]", "µM", 135],
  ["CCC(C)Sc1nc(Cc2ccc(F)cc2)c(C)c(=O)[nH]1 (centres unmarked) [MC 919]", "µM", 105],
  ["CCC(C)Sc1nc(Cc2ccc(C(F)(F)F)cc2)cc(=O)[nH]1 (centres unmarked) [MC 959]", "µM", 200]
]}

[Q] // Input: CCC(C)Sc1nc(Cc2ccccc2F)c(C)c(=O)[nH]1 (centres unmarked) [MC 913] . Output its CC50 only.
[A] 140

----------
The reader will find reported SI values listed item by item below.
Test system: HIV-1 (IIIB strain)
Assay type: cell-based
Settings: selectivity index (CC50/EC50)

Worked set:
{"columns": ["compound", "SI"],
 "data": [
  ["CC(c1cc(=O)[nH]c(SC2CCCC2)n1)c1c(F)cccc1F (stereo not shown) [MC 1008]", ">6,666"],
  ["CC(c1cc(=O)[nH]c(SC2CCCCC2)n1)c1c(F)cccc1F (stereo not shown) [MC 1013]", ">1,250"],
  ["Cc1c(C(C)c2c(F)cccc2F)nc(NC2CCCC2)[nH]c1=O (stereo not shown) [MC1129]", "4,500"],
  ["CCC(C)Sc1nc(Cc2ccc(Cl)cc2)cc(=O)[nH]1 (stereo not shown) [MC 859]", 24],
  ["CCC(C)Sc1nc(Cc2ccc(OC)cc2)cc(=O)[nH]1 (stereo not shown) [MC 964]", 10.5],
  ["CCC(c1ccccc1)c1cc(=O)[nH]c(SC2CCCC2)n1 (stereo not shown) [MC 900]", ">200"],
  ["Cc1c(Cc2c(F)cccc2F)nc(SC2CCCC2)[nH]c1=O [MC 922]", ">2,500"],
  ["CCCc1c(Cc2ccccc2)nc(SC(C)CC)[nH]c1=O (stereo not shown) [MC 856]", 16]
]}

[Q] Give the measured SI for O=c1cc(Cc2ccccc2)nc(SCOCc2ccccc2)[nH]1 [MC 843]
[A] >4

[Q] Given the compound CCC(C)Sc1nc(Cc2ccc(N)cc2)cc(=O)[nH]1 (stereo not shown) [MC 960] , write its reported SI.
[A] >8

[Q] Input Cc1c(Cc2c(F)cccc2F)nc(NC(C)C)[nH]c1=O [MC 1118] , output reported SI.
[A] 6,333

[Q] // fetch SI given entry CCC(C)Sc1nc(Cc2ccc(F)cc2)c(C)c(=O)[nH]1 (stereo not shown) [MC 919]
[A] 9.5

[Q] Item Cc1c(Cc2c(Cl)cccc2Cl)nc(SC(C)C)[nH]c1=O [MC 914] : provide SI
[A] >154

[Q] Please report SI for the following compound: O=c1cc(Cc2c(F)cccc2F)nc(SC2CCCC2)[nH]1 [MC 867]
[A] >2,500

[Q] Specify SI for O=c1cc(Cc2c(Cl)cccc2Cl)nc(SC2CCCCC2)[nH]1 [MC 891] and stop.
[A] >333

[Q] Supply reported SI belonging to this compound: CCc1c(Cc2c(F)cccc2F)nc(SC(C)CC)[nH]c1=O (stereo not shown) [MC 1038]
[A] >2,000

[Q] Input CSc1nc(Cc2c(Cl)cccc2Cl)cc(=O)[nH]1 [MC 877] , output reported SI.
[A] >62

[Q] Answer with the recorded SI of CC(c1ccccc1)c1cc(=O)[nH]c(SC2CCCC2)n1 (stereo not shown) [MC 892] only.
[A] 333

[Q] Supply reported SI belonging to this compound: CCC(C)Nc1nc(Cc2c(F)cccc2F)c(C)c(=O)[nH]1 (stereo not shown) [MC 1130]
[A] 2,857

[Q] Kindly indicate its recorded SI. Item: CCc1c(Cc2cccc3ccccc23)nc(SC(C)CC)[nH]c1=O (stereo not shown) [MC 804]
[A] >34

[Q] Answer with reported SI of CCc1c(Cc2ccccc2)nc(SC(C)CC)[nH]c1=O (stereo not shown) [MC 798]
[A] >200

[Q] Please list SI recorded for the compound CCC(c1cc(=O)[nH]c(SC(C)C)n1)c1cccc2ccccc12 (stereo not shown) [MC 969]
[A] 33.3

----------
Test system: HIV-1 (IIIB strain)
Assay type: cell-based
Conditions: anti-HIV-1 activity, HIV-1-infected MT-4 cells
parameter-measured: pEC50
// pEC50: -log10(molar conc.)

{"columns": ["compound", "numeric-readout"],
 "data": [
  ["CC(c1cc(=O)[nH]c(SC2CCCCC2)n1)c1c(F)cccc1F (stereo not shown)", 6.80]
]}

[Q] Give recorded pEC50. CCC(C)Sc1nc(Cc2cc(F)cc(F)c2)cc(=O)[nH]1 (stereo not shown)
[A] 5.85

[Q] Input CCC(C)Sc1nc(Cc2ccccc2OC)cc(=O)[nH]1 (stereo not shown) , output reported pEC50.
[A] 5.71

[Q] Please give the documented pEC50 of CCC(C)Sc1nc(Cc2cccc(OC)c2)cc(=O)[nH]1 (stereo not shown)
[A] 5.92

[Q] Dear colleague, please send me the reported pEC50 for CCC(c1cc(=O)[nH]c(SC2CCCC2)n1)c1cccc2ccccc12 (stereo not shown) when you can.
[A] 5.52

[Q] Note pEC50 for the compound shown: COCCNc1nc(Cc2c(F)cccc2F)cc(=O)[nH]1
[A] 6.10

----------
# SI per record follows
System: HIV-1 (IIIB strain)
Format: cell-based
Settings: selectivity index (CC50/EC50)

Example results:
{"columns": ["compound", "parameter-measured", "result"],
 "data": [
  ["CCC(C)Sc1nc(Cc2ccccc2[N+](=O)[O-])cc(=O)[nH]1 (centres unmarked)", "SI", ">800"],
  ["Cc1c(C(C)c2c(F)cccc2F)nc(SC2CCCC2)[nH]c1=O (centres unmarked)", "SI", ">22,222"],
  ["CCC(c1cc(=O)[nH]c(SC2CCCCC2)n1)c1c(F)cccc1F (centres unmarked)", "SI", "2,600"],
  ["CC(C)Sc1nc(C(C)c2c(F)cccc2F)cc(=O)[nH]1 (centres unmarked)", "SI", "3,340"]
]}

Would you kindly look at the next entry?
[Q] Give the reported SI for this compound. CCC(c1cc(=O)[nH]c(SC(C)C)n1)c1c(Cl)cccc1Cl (centres unmarked)
[A] >500

----------
Tested on: HIV-1 (IIIB strain)
Type: cell-based
Conditions: anti-HIV-1 activity, HIV-1-infected MT-4 cells
Protocol: Compounds. Compounds were solubilized in DMSO at 200 mM and then diluted into culture medium. Cells and viruses. […] HIV Titration. […] The infectious virus titre was determined by light microscope scoring of cytopathicity after 4 days of incubation and the virus titres were expressed as CCID50/mL. Anti-HIV Assays. […] After a 4-day incubation at 37° C., the number of viable cells was determined by the 3-(4,5-dimethylthiazol-[…])-2,5-diphenyltetrazolium bromide (MTT) method. […]
# fulfilled = EC50 below 1000 nM (exclusive); not fulfilled = EC50 at/above 1000 nM

Example results:
{"columns": ["compound", "category-label"],
 "data": [
  ["O=c1cc(Cc2c(F)cccc2F)nc(SC2CCCC2)[nH]1", "fulfilled"],
  ["CCC(C)Sc1nc(Cc2c(Cl)cccc2Cl)cc(=O)[nH]1 (stereo not shown)", "fulfilled"],
  ["CC(c1cc(=O)[nH]c(SC2CCCCC2)n1)c1cccc2ccccc12 (stereo not shown)", "fulfilled"],
  ["Cc1c(Cc2c(Cl)cccc2Cl)nc(SCC(C)C)[nH]c1=O", "not fulfilled"],
  ["Cc1c(Cc2c(Cl)cccc2Cl)nc(SC(C)C)[nH]c1=O", "not fulfilled"]
]}

Proceed to the following item.
[Q] Does the reported EC50 of the following compound sit strictly below 1000 nM? CC(C)Sc1nc(C(C)c2cccc3ccccc23)cc(=O)[nH]1 (stereo not shown)
[A] not fulfilled

----------
Listing of entries alongside the reported SI.
Test system: HIV-1 (IIIB strain)
Assay type: cell-based
Conditions: selectivity index (CC50/EC50)
Experimental: Compounds. Compounds were solubilized in DMSO at 200 mM and then diluted into culture medium. Cells and viruses. […] HIV Titration. […] The infectious virus titre was determined by light microscope scoring of cytopathicity after 4 days of incubation and the virus titres were expressed as CCID50/mL. Anti-HIV Assays. […] After a 4-day incubation at 37° C., the number of viable cells was determined by the 3-(4,5-dimethylthiazol-[…])-2,5-diphenyltetrazolium bromide (MTT) method. […]

{"columns": ["compound", "SI"],
 "data": [
  ["CSc1nc(C(C)c2c(F)cccc2F)c(C)c(=O)[nH]1 (centres unmarked) [MC 1060]", ">5,000"],
  ["CCC(C)Sc1nc(Cc2ccc([N+](=O)[O-])cc2)c(C)c(=O)[nH]1 (centres unmarked) [MC 924]", ">100"],
  ["CCCCSc1nc(Cc2c(Cl)cccc2Cl)cc(=O)[nH]1 [MC 886]", ">454"]
]}

[Q] // Input: Cc1c(Cc2c(F)cccc2F)nc(SC2CCCCC2)[nH]c1=O [MC 923] . Output its SI only.
[A] >2,222

[Q] Identify SI associated with the compound CCC(C)Sc1nc(Cc2c(Cl)cccc2Cl)cc(=O)[nH]1 (centres unmarked) [MC 815]
[A] >1,428
